Test system: Trichophyton mentagrophytes
assay remarks: Antifungal activity against recultured Trichophyton mentagrophytes by serial plate dilution method
Format: functional

# smiles code, assay target, unit of measure, MIC
rows = [
    ("COCCn1c(S)nnc1-c1cnc2c(C(F)(F)F)cccc2c1NCCC(C)(C)C", "Trichophyton mentagrophytes", "µg/mL", 6.25),
    ("FC(F)(F)c1cccc2c(N3CCC(N4CCOCC4)CC3)c(-c3nnc(S)n3-c3ccccc3)cnc12", "Trichophyton mentagrophytes", "µg/mL", 6.25),
    ("FC(F)(F)c1cccc2c(Cl)c(-c3nnc(S)n3Cc3ccccc3)cnc12", "Trichophyton mentagrophytes", "µg/mL", 50),
    ("NCCN1CCN(c2c(-c3nnc(S)n3Cc3ccccc3)cnc3c(C(F)(F)F)cccc23)CC1", "Trichophyton mentagrophytes", "µg/mL", 50),
    ("COCCn1c(S)nnc1-c1cnc2c(C(F)(F)F)cccc2c1N1CCC(CCCO)CC1", "Trichophyton mentagrophytes", "µg/mL", 50),
    ("FC(F)(F)c1cccc2c(N3CCOCC3)c(-c3nnc(S)n3Cc3ccccc3)cnc12", "Trichophyton mentagrophytes", "µg/mL", 12.5),
    ("FC(F)(F)c1cccc2c(N3CCOCC3)c(-c3nnc(S)n3-c3ccccc3)cnc12", "Trichophyton mentagrophytes", "µg/mL", 6.25),
    ("CC(C)N1CCN(c2c(-c3nnc(S)n3-c3ccccc3)cnc3c(C(F)(F)F)cccc23)CC1", "Trichophyton mentagrophytes", "µg/mL", 50),
    ("COCCn1c(S)nnc1-c1cnc2c(C(F)(F)F)cccc2c1N1CCOCC1", "Trichophyton mentagrophytes", "µg/mL", 6.25),
    ("CC(C)(C)CCNc1c(-c2nnc(S)n2-c2ccccc2)cnc2c(C(F)(F)F)cccc12", "Trichophyton mentagrophytes", "µg/mL", 6.25),
]

Data provenance: ChEMBL document CHEMBL1155347
